Provenance of the data: patent US20190284262A1

biological target: T1, R3 (RHAMM-R3) peptide/HLA-A*02:01 complex on T2 cells (human); test: flow cytometry, phage on T2 + R3 peptide; secondary only 126, unstained 94.4
T1 construct: Control target of the phage staining of T2 cells; also called T2 cells pulsed with R3 peptide; RHAMM 3 (R3)
value.kind: Median:FITC-A
# print the numeric value only

(FoxP2)_#15 (scFv, also called EXT019-15 scFv phage clone) scFv (VL-linker-VH-His/HA tag): SYVLTQPPSVSVAPGETASITCGANNIGSESVHWYQQKSGQAPVLVIYYDSDRPSGIPERFSGSNSDNTATLTISRVEAGDEADYYCQVWDHINDHYVFGSGTKVTVLGSRGGGGSGGGGSGGGGSLEMAEVQLVESGGGLAQPGGSLRLSCAASGFSFSNYAMSWVRQAPGTGLEWVAGISGRGGSIHYADSVKGRFTISRDNSQSTVFLQMNNLGAEDTAIYYCAKSSEDYYFYHMDAWGIGTTVTVSSTSGQAGQHHHHHHGAYPYDVPDYAS = 145

Now for the binder whose Median:FITC-A we want.
What Median:FITC-A value was documented for this binder, (FoxP2)_#13 (scFv, also called EXT019-13 scFv phage clone) scFv (VL-linker-VH-His/HA tag): LPVLTQPPSVSVAPGKTARITCGGNNIGSKSVHWYQQKPGQAPVLVIYYDSDRPSGIPERFSGSNSGNTATLTISRVEAGDEADYYCQVWDSSSAYVFGTGTKVTVLGSRGGGGSGGGGSGGGGSLEMAQVQLQQSGPGLVKPSQTLSLTCAISGDSVSSNSAAWNWIRQSPSRGLEWLGRTYYRSKWYNDYAVSVKSRITINPDTSKNQFSLQLNSVTPEDTAVYYCARYYSTSLDSWGQGTLVTVSSTSGQAGQHHHHHHGAYPYDVPDYAS ?
141
